test: chemical genetic growth profiling, strain panel (AID 1159580);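 note: tested at 20 µM; growth read once vehicle control cultures reached saturation at 30 °C; 1 = growth at the plate median or of vehicle wells; lower values mean less growth of the strain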; conditions: S. cerevisiae deletion strains, growth OD, locus YMR058W, strain fet3, hits give low values
The whole screen tested about 5,500 compounds, of which about 2,000 (36%) were called active. Another 18% or so got no clear call; they are omitted. Some of the results follow.
Parameter measured: normalized growth

Would you please look over these solved cases?
>  <Molecule>
Cc1ccc(/C(=C\CN2CCCC2)c2ccccn2)cc1

>  <Parameter measured>
normalized growth

>  <Observed>
1.02 (inactive)

$$$$
>  <Molecule>
C1CNCCN1

>  <Parameter measured>
normalized growth

>  <Observed>
1.02 (inactive)

$$$$
>  <Molecule>
C[C@H]1[C@H]2CCC3C4CC=C5C[C@@H](N(C)C)CC[C@]5(C)C4CC[C@@]32CN1C (stereo partly drawn)

>  <Parameter measured>
normalized growth

>  <Observed>
0.993 (inactive)

$$$$
>  <Molecule>
O=C(O)C1=CCNCC1

>  <Parameter measured>
normalized growth

>  <Observed>
1.02 (inactive)

$$$$
>  <Molecule>
Cc1c(Nc2ncccc2C(=O)O)cccc1C(F)(F)F

>  <Parameter measured>
normalized growth

>  <Observed>
0.972 (inactive)

$$$$
>  <Molecule>
C=C(NC(=O)C(=C)NC(=O)c1csc(C2=NC3c4csc(n4)C4NC(=O)c5csc(n5)C(C(C)(O)C(C)O)NC(=O)C5CSC(=N5)C(=CC)NC(=O)C(C(C)O)NC(=O)c5csc(n5)C3(CC2)NC(=O)C(C)NC(=O)C(=C)NC(=O)C(C)NC(=O)C(C(C)CC)NC2C=Cc3c(C(C)O)cc(nc3C2O)C(=O)OC4C)n1)C(N)=O (stereo not drawn)

>  <Parameter measured>
normalized growth

>  <Observed>
1 (inactive)

$$$$
>  <Molecule>
O=C(NC(=O)c1c(F)cccc1F)Nc1ccc(Cl)cc1

>  <Parameter measured>
normalized growth

>  <Observed>
1.02 (inactive)

$$$$
>  <Molecule>
Cc1c(O)c(O)cc2c1CC=C1[C@@]2(C)CC[C@@]2(C)C3C[C@](C)(C(=O)O)CC[C@]3(C)CC[C@]12C (stereo partly drawn)

>  <Parameter measured>
normalized growth

>  <Observed>
0.0953 (active)

$$$$

[ask] Report normalized growth for O[N+]1=CC=CCC1=S.On1ccccc1=S.[Zn] please.
[reply] 0.0596 (active)

[ask] Need normalized growth, item O=C1O[C@H](C(O)CO)C(O)=C1O (stereo partly drawn)
[reply] 0.99 (inactive)

[ask] Would you kindly share the measured normalized growth for C=C(C)C1CC=C(CO)CC1 (stereo not drawn) ?
[reply] 0.968 (inactive)

[ask] Given the entry CC(C)=CCC[C@](C)(O)C1CC=C(C)CC1 (stereo partly drawn) , report its measured normalized growth.
[reply] 0.97 (inactive)

[ask] For C1CCN2C[C@@H]3C[C@H](CN4CCCC[C@@H]34)[C@H]2C1 , what is its reported normalized growth?
[reply] 1.01 (inactive)

Where do these numbers come from? They come from PubChem BioAssay AID1159580.
